biological target: HLA-A*68:02; assay: IEDB peptide-MHC binding, purified MHC/competitive/radioactivity; bounds were set here for any values at or beyond the usual limits of such assays; details: source organism: Vaccinia virus WR
pIC50: −log10 of the molar value.

[
  {
    "sequenceData": "ILYYGANGST",
    "pIC50": 5.42
  },
  {
    "sequenceData": "DLNAVTTNNL",
    "pIC50": 5.47
  },
  {
    "sequenceData": "YMVTDKTAYI",
    "pIC50": 8.82
  },
  {
    "sequenceData": "EQGDIALAL",
    "pIC50": 6.10
  },
  {
    "sequenceData": "STAEQLSKYV",
    "pIC50": 7.55
  },
  {
    "sequenceData": "NLEELTTVFI",
    "pIC50": 5.89
  },
  {
    "sequenceData": "IVCSKTVKNV",
    "pIC50": 5.76
  }
]
